tested on: NCI-H23; assay: NCI tumour cell line growth inhibition, 48 h
The source made the active and inactive calls. No stated cut-off is given here; in the data, active = GI50 up to about 1.1 µM and inactive = higher.
EXPERIMENTAL_ENDPOINT: GI50

Look over these answered cases.
COMPOUND: CC(C)C(/C=C/c1ccccc1)=N\NC(=S)NN
GI50: > 77.3 µM (inactive)

COMPOUND: CCCNC1=C(C(=O)OCC)C(=O)CO1
GI50: > 100 µM (inactive)

COMPOUND: CCN(CC)/N=C\c1c2ccccc2cc2ccccc12
GI50: 58.9 µM (inactive)

[in] Read the entry `O=C(NCCCn1ccnc1[N+](=O)[O-])C(=O)NCCCn1ccnc1[N+](=O)[O-]` and write its reported GI50.
[out] > 100 µM (inactive)

[in] Tell me measured GI50 for `O=c1c2cc([N+](=O)[O-])cnc2sn1-c1ccc(Oc2ccccc2)cc1` please.
[out] 36.4 µM (inactive)

[in] Indicate the recorded GI50 value for this compound: OC1(c2ccc3ccccc3c2)c2ccc3ccccc3c2C2=NCCN21 (stereo unspecified)
[out] > 100 µM (inactive)

###

# key: entry, value: GI50
system: M14; test: NCI tumour cell line growth inhibition, 48 h
Active and inactive are the calls of the source. No stated cut-off is given here; in the data, active = GI50 up to about 1.1 µM and inactive = higher.

[in] Answer with reported GI50 of CCCCC/C=C1\CC(CO)(COC(=O)CC(C(C)C)C(C)C)OC1=O (configuration not stated)
[out] 14.6 µM (inactive)

[in] Look up GI50 of `COc1cc(-c2oc3c(OC)c(O)c(OC)c(O)c3c(=O)c2OC)ccc1O` and report it.
[out] 10.4 µM (inactive)

[in] Find the measured GI50 of `NN/C(=N\S(=O)(=O)c1cc2ccccc2o1)Nc1ccc(Cl)cc1` and report it.
[out] > 100 µM (inactive)

###

system: LOX IMVI; experiment: NCI tumour cell line growth inhibition, 48 h
Active and inactive are the calls of the source. No stated cut-off is given here; in the data, active = GI50 up to about 1.1 µM and inactive = higher.
Tick one outcome: active, inactive

COMPOUND: Oc1ccc(SCc2ccc(NCc3ccccc3)cc2)cc1
CLASS_LABEL: inactive
//
COMPOUND: CCOC(=O)/C(C[C@H]1OC(C)(C)O[C@@H]1[C@H]1COC(C)(C)O1)=N/O
CLASS_LABEL: inactive
//
COMPOUND: SC1=NNC2(C(S)=N1)c1ccccc1-c1ccccc12
CLASS_LABEL: inactive
//
COMPOUND: CN(C)C(=O)C(F)(F)C(c1ccccc1)C1C(=O)N(C)C(=O)N(C)C1=O (stereo not given)
CLASS_LABEL: inactive
//
COMPOUND: CC(C)N(C(C)C)P(OCCC#N)OC1CC(n2cnc3c(=O)[nH]cnc32)OC1COC(=O)NCCCCCCNC(=O)OC(C)(C)c1ccc(-c2ccccc2)cc1 (stereo not given)
CLASS_LABEL: inactive

[in] Short answer needed: outcome of this test for `c1ccc(SC(CCCCC(Sc2ccccc2)Sc2ccccc2)Sc2ccccc2)cc1` ?
[out] inactive

[in] For `Oc1ccc2ccccc2c1/N=N/c1ccc(Cl)cc1` , what call appears in the results of this test?
[out] inactive

[in] Hi, do you know how `CCCc1nc(Cl)nc(Cl)c1Cl` came out in this test?
[out] active

[in] Answer briefly: the call reported for `C=CC[C@]1(C2=NC(C)(C)CO2)c2ccccc2-c2ccccc2[C@H]1C(C)=O` in this assay.
[out] inactive

[in] Check the results log: what was the call for `N#Cc1c(Cl)cccc1Oc1ccc(S(=O)(=O)N/C(=N\O)Nc2ccc(Cl)cc2)cc1` ?
[out] inactive

###

test system: A549; assay: NCI tumour cell line growth inhibition, 48 h
Active and inactive are the calls of the source. Rule as the data show it: active = GI50 up to about 1.1 µM and inactive = higher.
# Lookup of reported GI50 keyed by entry

Below, 8 compounds whose answers are already recorded.
COMPOUND: CSc1nc(C)c2c(n1)N(c1ccc(Cl)cc1)CC2
TARGET: A549
GI50: > 100 µM (inactive)
//
COMPOUND: COc1ccc([S+]([O-])Cc2cc(OC)ccc2OC)cc1 (stereo unspecified)
TARGET: A549
GI50: > 100 µM (inactive)
//
COMPOUND: CC(C)NCC(O)c1ccc(OCc2ccccc2)c(OCc2ccccc2)c1-c1ccccc1 (stereo unspecified)
TARGET: A549
GI50: 1.72 µM (inactive)
//
COMPOUND: CCN(CC)C(=O)CCNC(C)Cc1c[nH]c2ccccc12 (stereo unspecified)
TARGET: A549
GI50: > 100 µM (inactive)
//
COMPOUND: NC(=O)N/N=C\c1ccccc1OCc1cccc(COc2ccccc2/C=N\NC(N)=O)n1
TARGET: A549
GI50: > 100 µM (inactive)
//
COMPOUND: C[C@]12CCC(O)CC1=CC[C@@H]1[C@@H]2CC[C@]2(C)C(O)[C@H](n3ccnc3)C[C@@H]12 (stereo partly specified)
TARGET: A549
GI50: 81.7 µM (inactive)
//
COMPOUND: CCCCCCCCCCCCCCCCCCOCC(CO[PH](=O)O)OCCCCCCCCCCCCCCCCCC (stereo unspecified)
TARGET: A549
GI50: > 50 µM (inactive)
//
COMPOUND: CCOP(=O)(OCC)/C(C#N)=C/c1nccn1C
TARGET: A549
GI50: > 100 µM (inactive)

[in] Name the recorded GI50 of the item `c1ccc(CN(Cn2cccn2)Cn2cccn2)nc1` in your answer.
[out] > 100 µM (inactive)

[in] Supply reported GI50 belonging to this compound: NC1CC(=O)c2sccc21 (stereo unspecified)
[out] > 100 µM (inactive)

[in] Supply recorded GI50 for `N=C(N)SCc1cccc([N+](=O)[O-])c1` here.
[out] 39.7 µM (inactive)

###

test system: UO-31; test: NCI tumour cell line growth inhibition, 48 h
Activity calls are given as the source filed them. No stated cut-off is given here; in the data, active = GI50 up to about 1.1 µM and inactive = higher.
Documented GI50 across a set of molecules

Recorded GI50, per entry:
MOLECULE: CN1C(=O)C2(C=CC(O)CC2)c2ccccc21 (centres undefined)
GI50: > 100 µM (inactive)
//
MOLECULE: O=C(Nc1nnc(S)[nH]1)C(=O)C1C(=O)Nc2ccccc2[S+]1[O-] (centres undefined)
GI50: > 100 µM (inactive)

[in] Note down GI50 recorded for CC(C)(C)C1CCC(CI)(N=[N+]=[N-])CC1 (centres undefined)
[out] > 100 µM (inactive)

[in] Look up and report measured GI50 for this entry: `Cc1c(/C=N/NC(=S)Nc2ccc(Cl)cc2)c(=O)n(-c2ccccc2)n1C`
[out] 32.1 µM (inactive)

[in] Recall and state the measured GI50 for `c1ccc(SC(CCCCC(Sc2ccccc2)Sc2ccccc2)Sc2ccccc2)cc1` .
[out] > 100 µM (inactive)

[in] Give the reported GI50 for this molecule. C[C@H](O)C1CC(Cn2nnc3c(N)ncnc32)C1(C)C (some centres undefined)
[out] > 100 µM (inactive)

[in] Using the record for CCCCCCCCCCCCCCCCCCOCC(O)CO (centres undefined) , state its measured GI50.
[out] 12.5 µM (inactive)

[in] Look up and report measured GI50 for this entry: `CCOP(=O)(OCC)/C(C#N)=C/c1nccn1C`
[out] > 100 µM (inactive)

[in] Tell me measured GI50 for COC(=O)C1=CO[C@@H](OC2CC(CO)C(O)C(O)C2O)[C@@H]2[C@@H](C)[C@@H](OC(=O)/C=C/c3ccccc3)[C@@H](O)[C@H]12.COC(=O)C1=CO[C@@H](OC2CC(CO)C(O)C(O)C2O)[C@@H]2[C@@H](C)[C@@H](OC(=O)c3ccccc3)[C@@H](O)[C@H]12 (some centres undefined) please.
[out] > 100 µM (inactive)

###

The entries below come with measured GI50 values attached.
test system: SK-MEL-5; assay: NCI tumour cell line growth inhibition, 48 h
Activity calls are given as the source filed them. No stated cut-off is given here; in the data, active = GI50 up to about 1.1 µM and inactive = higher.

MOLECULE: CC(NC(=O)C(CC(=O)OCc1ccccc1)NC(=O)OCc1ccccc1)c1ccccc1 (centres undefined)
EXPERIMENTAL_ENDPOINT: GI50
OBS_VALUE: > 100 µM (inactive)
--
MOLECULE: CC1=C2C(=O)C(C)(C)C=C2C(=O)[C@](C)(O)C12CC2 [DEHYDROILLUDIN M]
EXPERIMENTAL_ENDPOINT: GI50
OBS_VALUE: 0.296 µM (active)
--
MOLECULE: CC1/C=C/[C@@]2(C)CCC(C(C)(C)O)C2C(O)C[C@](C)(O)/C=C/C1 (some centres undefined)
EXPERIMENTAL_ENDPOINT: GI50
OBS_VALUE: > 100 µM (inactive)
--
MOLECULE: COc1cc2c3cc1Oc1c(OC)c(OC)cc4c1C(Cc1ccc(O)c(c1)Oc1ccc(cc1)CC3N(C)CC2)N(C)CC4 (centres undefined)
EXPERIMENTAL_ENDPOINT: GI50
OBS_VALUE: 20 µM (inactive)
--
MOLECULE: COc1cc(/C=C2/C[C@H]3[C@@H]4CC=C5C[C@@H](O)CC[C@]5(C)[C@H]4CC[C@]3(C)NC2=O)cc(OC)c1OC
EXPERIMENTAL_ENDPOINT: GI50
OBS_VALUE: 6.7 µM (inactive)
--
MOLECULE: CCc1c[n+]([O-])c(C)cc1[N+](=O)[O-]
EXPERIMENTAL_ENDPOINT: GI50
OBS_VALUE: > 100 µM (inactive)
--
MOLECULE: CC(C)NCC(O)c1ccc(OCc2ccccc2)c(OCc2ccccc2)c1-c1ccccc1 (centres undefined)
EXPERIMENTAL_ENDPOINT: GI50
OBS_VALUE: 1.25 µM (inactive)
--
MOLECULE: C=CC1(CCC(Br)C(C)(C)Cl)CO1 (centres undefined)
EXPERIMENTAL_ENDPOINT: GI50
OBS_VALUE: > 10 µM (inactive)

Would you kindly look at the next entry?
[in] Return GI50 for the following molecule: `C[N+](C)(C)CC(=O)N/N=C(/Cc1nc2ccc(Cl)cc2nc1O)C1=NS(=O)(=O)c2cc(S(N)(=O)=O)c(Cl)cc2N1`
[out] > 100 µM (inactive)
